Reference source for all entries: patent US20240034774A1

- measurement-target: HIV-1 envelope glycoprotein gp120 of virus 92US727 (HIV-1)
- assay-info: cell-based or functional assay

binder	neutralization IC50
2.2.12-1 (antibody, human IgG1, kappa, V domains shown) VH: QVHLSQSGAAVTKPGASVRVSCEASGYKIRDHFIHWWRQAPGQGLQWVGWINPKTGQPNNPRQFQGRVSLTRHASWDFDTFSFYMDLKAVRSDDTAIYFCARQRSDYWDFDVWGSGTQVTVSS VL: DIQMTQSPSSLSARVGDTATITCQANGYLNWYQQRRGKAPKLLIYDGSKLERGVPARFSGRRWGQEYILTINNLQPEDVATYFCQVYEFFGPGTRLDLKR	> 50 µg/mL
2.2.13-1 (antibody, human IgG1, kappa, V domains shown) VH: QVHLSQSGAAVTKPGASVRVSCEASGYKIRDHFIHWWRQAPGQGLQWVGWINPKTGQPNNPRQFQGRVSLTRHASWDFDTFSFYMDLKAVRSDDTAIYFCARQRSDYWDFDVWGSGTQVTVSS VL: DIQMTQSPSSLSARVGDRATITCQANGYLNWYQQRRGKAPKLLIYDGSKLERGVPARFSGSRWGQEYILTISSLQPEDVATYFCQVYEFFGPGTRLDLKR	> 50 µg/mL
2.3.12-1 (antibody, human IgG1, kappa, V domains shown) VH: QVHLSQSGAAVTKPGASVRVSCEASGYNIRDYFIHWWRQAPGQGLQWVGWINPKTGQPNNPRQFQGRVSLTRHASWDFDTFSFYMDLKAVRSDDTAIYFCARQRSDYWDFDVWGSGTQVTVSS VL: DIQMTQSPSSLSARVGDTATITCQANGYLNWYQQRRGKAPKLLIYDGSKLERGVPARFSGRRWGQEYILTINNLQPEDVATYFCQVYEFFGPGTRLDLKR	> 50 µg/mL
